assay: Half life in human hepatocytes
Assay type: ADME, cell-based, Hepatocyte
Overview of reported half-life across a group of molecules:
value-kind: half-life (h)

INSERT INTO results (molecule, unit_descriptor, recorded_measurement) VALUES
  ('COc1ccc2nc(C(F)(F)F)n(CC(=O)N3CC[C@H](NC4CCOC4)C[C@H]3c3ncc(-c4cc5ccccc5nc4OC)[nH]3)c2c1 (some centres not stated)', 'h', 3.1),
  ('COc1nc2ccccc2cc1-c1cnc([C@@H]2CN(CC3CCOC3)CCN2C(=O)n2c(C(F)(F)F)nc3ccccc32)[nH]1 (some centres not stated)', 'h', 2.6);

###

assay: Permeability in porcine brain endothelial cells/rat astrocytes model system
Format: ADME, cell-based
condition-info: read-out: permeability
value-kind: Papp (×10⁻⁶ cm/s)

INSERT INTO assay_data (compound, unit_descriptor, recorded_measurement) VALUES
  ('COc1nc2ccccc2cc1-c1cnc([C@@H]2CN(CC3CCOC3)CCN2C(=O)n2c(C(F)(F)F)nc3ccccc32)[nH]1 (stereo partly specified)', '×10⁻⁶ cm/s', 8.6);

###

assay: Half life in mouse hepatocytes
Assay type: ADME, cell-based, Hepatocyte
value-kind: half-life (h)

INSERT INTO measurements (compound, value_kind, unit_descriptor, recorded_measurement) VALUES
  ('COc1nc2ccccc2cc1-c1cnc([C@@H]2CN(CC3CCOC3)CCN2C(=O)n2c(C(F)(F)F)nc3ccccc32)[nH]1 (some centres not stated)', 'half-life', 'h', 0.8),
  ('COc1ccc2nc(C(F)(F)F)n(CC(=O)N3CC[C@H](NC4CCOC4)C[C@H]3c3ncc(-c4cc5ccccc5nc4OC)[nH]3)c2c1 (some centres not stated)', 'half-life', 'h', 4);

###

assay: Cytotoxicity against human HeLa cells assessed as reduction in cell viability
Format: cell-based
condition-info: HeLa cells
value-kind: CC50 (µM)

INSERT INTO assay_data (compound, value_kind, recorded_measurement) VALUES
  ('COc1ccc2nc(C(F)(F)F)n(CC(=O)N3CC[C@H](NC4CCOC4)C[C@H]3c3ncc(-c4cc5ccccc5nc4OC)[nH]3)c2c1 (stereo partly specified)', 'CC50', 7.49);

###

Overview of reported Cmax across a group of compounds:
assay: Cmax in C57BL6 mouse at 30 mg/kg, ip
Assay type: ADME, organism-based
Parameters: dose 30 mg/kg, route intraperitoneal
condition-info: in vivo
value-kind: Cmax (µM)

INSERT INTO measurements (compound, value_kind, recorded_measurement) VALUES
  ('COc1nc2ccccc2cc1-c1cnc([C@@H]2CN(CC3CCOC3)CCN2C(=O)n2c(C(F)(F)F)nc3ccccc32)[nH]1 (some centres not stated)', 'Cmax', 6.9),
  ('COc1ccc2nc(C(F)(F)F)n(CC(=O)N3CC[C@H](NC4CCOC4)C[C@H]3c3ncc(-c4cc5ccccc5nc4OC)[nH]3)c2c1 (some centres not stated)', 'Cmax', 5);

###

assay: Cytotoxicity against HUVEC assessed as reduction in cell viability
Assay type: cell-based
condition-info: human
value-kind: CC50 (µM)

INSERT INTO measurements (compound, recorded_measurement) VALUES
  ('COc1ccc2nc(C(F)(F)F)n(CC(=O)N3CC[C@H](NC4CCOC4)C[C@H]3c3ncc(-c4cc5ccccc5nc4OC)[nH]3)c2c1 (stereo partly specified)', 3.68);

###

assay: Protein binding in mouse plasma assessed as unbound fraction
Format: ADME, cell-free
Overview of reported fraction unbound across a group of compounds:
value-kind: fraction unbound

INSERT INTO results (compound, recorded_measurement) VALUES
  ('COc1ccc2nc(C(F)(F)F)n(CC(=O)N3CC[C@H](NC4CCOC4)C[C@H]3c3ncc(-c4cc5ccccc5nc4OC)[nH]3)c2c1 (some centres not stated)', 0.047),
  ('COc1nc2ccccc2cc1-c1cnc([C@@H]2CN(CC3CCOC3)CCN2C(=O)n2c(C(F)(F)F)nc3ccccc32)[nH]1 (some centres not stated)', 0.0204);
